# ASSAY PROCEDURE: RP, Restek Raptor Biphenyl, 100 × 2.1 mm, 2.7 µm, 50 °C, 0.4 mL/min, estimated dead time 0.55 min; A: water + 0.1% formic acid, pH 3; B: methanol + 0.1% formic acid, pH 3; gradient (min/%B) 0/5 1.12/5 6.41/99.5 10.01/99.5
# CONDITION LABEL: stereoisomer not certain
RECORDED ENDPOINT: LC retention time (min)

Past entries and their recorded results:
O=C(Nc1ccc(F)cc1F)c1cccnc1Oc1cccc(C(F)(F)F)c1 = 6.33
O=C(O)CC(O)CC(=O)O [3-Hydroxyglutaric acid] = 0.77
CN(C)C(=O)Nc1ccc(Cl)c(Cl)c1 = 5.22
CCCCCCCCC=CCCCCCCCCCCCCCC(=O)O = 6.93

(P) COC(=O)c1ccc(CNS(C)(=O)=O)cc1S(=O)(=O)NC(=O)Nc1nc(OC)cc(OC)n1
(Q) CC(C)=CC(=O)NCC(=O)O
Data request: Hey, which is lower on measured LC retention time, P or Q ? Field: selected label. Fill in the label of the entry you choose.
Data returned: Q
(Q: 2.95 min, P: 6.04 min)

====

# ASSAY PROCEDURE: RP, Restek Raptor Biphenyl, 100 × 2.1 mm, 2.7 µm, 50 °C, 0.4 mL/min, estimated dead time 0.55 min; A: water + 0.1% formic acid, pH 3; B: methanol + 0.1% formic acid, pH 3; gradient (min/%B) 0/5 1.12/5 6.41/99.5 10.01/99.5
# CONDITION LABEL: stereoisomer not certain
RECORDED ENDPOINT: LC retention time (min)

These recorded examples may help you get a feel for the data.
Cc1ncc(CO)c(C(=O)O)c1O [4-PYRIDOXATE] = 1.8
CCCCCCCCCCCCCCC[n+]1cccc(S(=O)(=O)[O-])c1 [C15-APS] = 6.23
Cc1cn(C2CC(O)C(COP(=O)(O)O)O2)c(=O)[nH]c1=O (stereo not drawn) [THYMIDINE-MONOPHOSPHATE] = 0.837
CC(CCC(=O)NCC(=O)O)C1CCC2C3CC(O)C4CC(O)CCC4(C)C3CCC12C (stereo not drawn) [Glycohyodeoxycholic acid] = 5.79

(1) Nc1nc2ncc(CNc3ccc(C(=O)NC(CCC(=O)O)C(=O)O)cc3)nc2c(=O)[nH]1 (stereo not drawn) [FOLATE]
(2) CC(CC(=O)O)CC(=O)O [3-Methylglutaric acid]
(3) CC(CCC(=O)O)C1CCC2C3C(OS(=O)(=O)O)CC4CC(O)CCC4(C)C3CC(O)C12C (stereo not drawn) [Cholic acid 7-sulfate]
Data request: Sort low-to-high on LC retention time, please. Rank them, then answer with their labels in that order.
Data returned: 2, 1, 3
(2: 2.43 min, 1: 3.67 min, 3: 5.85 min)

(I) O=C(O)CCCCC(O)CC(=O)O (stereo not drawn) [3-Hydroxysuberic Acid]
(II) CC(CCC(=O)NCCS(=O)(=O)O)C1CCC2C3CCC4CC(O)CCC4(C)C3CCC12C (stereo not drawn) [Taurolithocholic acid]
(III) CC[n+]1cccc(S(=O)(=O)[O-])c1 [C2-APS]
Data request: Provide the items ranked by increasing LC retention time. # list labels per requested ordering
Data returned: III, I, II
(III: 0.835 min, I: 2.74 min, II: 6.47 min)

(1) O=C(O)CCC(O)CC(=O)O (stereo not drawn) [3-Hydroxyhexanedioic Acid]
(2) N[C@@H](Cc1ccc(O)c([N+](=O)[O-])c1)C(=O)O [3-NITRO-L-TYROSINE]
Data request: Which item exceeds the other in LC retention time, 1 or 2 ? Response format: the label of the selected entry.
Data returned: 2

(P) Nc1nc2c(ncn2C2CC(O)C(CO)O2)c(=O)[nH]1 (stereo not drawn) [DEOXYGUANOSINE]
(Q) CCCCCCCC[n+]1cccc(S(=O)(=O)[O-])c1 [C8-APS]
Data request: Among P and Q , which shows a numerically higher LC retention time result? Pick one; state its label.
Data returned: Q
(Q: 4.8 min, P: 1.59 min)
